Target system: A2B adenosine receptor (Homo sapiens, UniProt P29275)
Construct: An endogenous A2B adenosine receptor coupled to cyclic AMP generation in human embryonic kidney (HEK-293) cells; endogenous in cells
Sequence (P29275 whole entry): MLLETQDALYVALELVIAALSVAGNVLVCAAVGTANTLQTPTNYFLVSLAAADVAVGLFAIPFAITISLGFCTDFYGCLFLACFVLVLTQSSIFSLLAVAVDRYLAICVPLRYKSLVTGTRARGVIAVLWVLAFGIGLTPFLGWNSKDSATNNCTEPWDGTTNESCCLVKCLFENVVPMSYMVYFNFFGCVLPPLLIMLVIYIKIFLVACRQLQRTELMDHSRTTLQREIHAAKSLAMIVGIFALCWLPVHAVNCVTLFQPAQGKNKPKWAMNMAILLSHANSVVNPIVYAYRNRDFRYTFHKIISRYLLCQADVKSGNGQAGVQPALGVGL
Test method notes: A2B antagonist cAMP assay (inhibition of the NECA response, HTRF)
Assay type: cell-based
Conditions used: test compound at 1×10^−7M; percent inhibition of the control response to 1 μM NECA (cAMP)
Please go through the items and note down their inhibition at 0.1 µM.

Data request: Record request: inhibition at 0.1 µM value, item `CN(CC#Cc1nc2c([nH]1)c(=O)n(C1CC1)c(=O)n2C1CC1)C(=O)Oc1cccc(C(F)(F)F)c1`
Data returned: > 5%

Data request: Record request: inhibition at 0.1 µM value, item `CN(CC#Cc1nc2c([nH]1)c(=O)n(C1CC1)c(=O)n2C1CC1)C(=O)Oc1ccc(F)cc1`
Data returned: > 20%

Data request: Record request: inhibition at 0.1 µM value, item `CN(CC#Cc1nc2c([nH]1)c(=O)n(C1CC1)c(=O)n2C1CC1)C(=O)Oc1ccccc1`
Data returned: > 5%

Data request: Record request: inhibition at 0.1 µM value, item `COc1ccccc1OC(=O)N(C)CC#Cc1nc2c([nH]1)c(=O)n(C1CC1)c(=O)n2C1CC1`
Data returned: > 5%

Data request: Record request: inhibition at 0.1 µM value, item `CN(C(=O)OCC#Cc1nc2c([nH]1)c(=O)n(C1CC1)c(=O)n2C1CC1)c1ccccc1`
Data returned: > 5%

Data request: Record request: inhibition at 0.1 µM value, item `CN(CC#Cc1nc2c([nH]1)c(=O)n(C1CC1)c(=O)n2C1CC1)C(=O)Oc1ccccc1Cl`
Data returned: > 5%

Data request: Record request: inhibition at 0.1 µM value, item `CN(C(=O)OCC#Cc1nc2c([nH]1)c(=O)n(C1CC1)c(=O)n2C1CC1)c1ccc(Cl)cc1`
Data returned: > 20%

Data request: Record request: inhibition at 0.1 µM value, item `CCCn1c(=O)n(C2CC2)c(=O)c2[nH]c(C#CCN(C)C(=O)Oc3ccc(F)cc3)nc21`
Data returned: > 20%
